target: human ether-à-go-go-related gene (hERG) potassium channel (human, UniProt Q12809); assay: primary screen, population patch clamp on CHO cells stably expressing hERG; higher = less effect of the substance;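 further: peak tail current of the secondary pulse compared with the same well before compound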
Sequence (Q12809 whole entry, looked up): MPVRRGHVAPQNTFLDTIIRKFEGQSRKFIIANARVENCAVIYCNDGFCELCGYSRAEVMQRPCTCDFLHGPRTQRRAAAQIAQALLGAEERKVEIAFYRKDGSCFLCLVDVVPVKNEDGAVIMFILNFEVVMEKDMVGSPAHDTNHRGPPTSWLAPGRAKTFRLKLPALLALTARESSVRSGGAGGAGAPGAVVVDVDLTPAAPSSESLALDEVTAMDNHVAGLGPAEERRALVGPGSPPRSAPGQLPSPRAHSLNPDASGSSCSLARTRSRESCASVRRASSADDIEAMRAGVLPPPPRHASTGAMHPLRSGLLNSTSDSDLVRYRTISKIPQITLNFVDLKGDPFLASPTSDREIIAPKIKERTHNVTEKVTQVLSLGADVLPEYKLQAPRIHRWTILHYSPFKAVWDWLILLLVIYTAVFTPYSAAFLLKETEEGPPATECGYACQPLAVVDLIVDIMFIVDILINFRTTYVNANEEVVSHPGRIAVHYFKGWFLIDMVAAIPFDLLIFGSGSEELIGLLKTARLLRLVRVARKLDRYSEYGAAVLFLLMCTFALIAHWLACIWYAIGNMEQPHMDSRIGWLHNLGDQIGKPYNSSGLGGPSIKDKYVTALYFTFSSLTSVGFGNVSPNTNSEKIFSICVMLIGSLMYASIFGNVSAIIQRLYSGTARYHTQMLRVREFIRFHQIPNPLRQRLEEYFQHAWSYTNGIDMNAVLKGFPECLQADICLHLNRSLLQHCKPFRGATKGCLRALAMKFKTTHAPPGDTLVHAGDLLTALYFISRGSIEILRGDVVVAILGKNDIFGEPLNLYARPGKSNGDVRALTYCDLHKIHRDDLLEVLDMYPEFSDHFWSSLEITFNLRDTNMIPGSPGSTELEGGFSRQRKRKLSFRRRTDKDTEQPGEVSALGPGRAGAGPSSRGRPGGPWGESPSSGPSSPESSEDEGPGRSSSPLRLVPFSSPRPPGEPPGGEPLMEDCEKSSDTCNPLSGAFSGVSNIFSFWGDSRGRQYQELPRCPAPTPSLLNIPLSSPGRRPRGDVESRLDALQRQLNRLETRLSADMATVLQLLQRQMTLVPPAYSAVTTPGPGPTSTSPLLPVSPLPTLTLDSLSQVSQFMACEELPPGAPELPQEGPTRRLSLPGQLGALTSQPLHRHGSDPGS
The campaign covered roughly 310,000 compounds. About 14,000 (4.5%) showed an effect of 50% or more. Effects have a minus sign here. The sample holds strong results, similar compounds and a random draw of the others, so the mix is not that of the screen.
Assay endpoint: hERG current change (%, negative = inhibition) at 10uM (%)
Report the value in % with no unit label.

Record excerpt, results attached:
Cc1cc(S(=O)(=O)Nc2ccc(C(=O)NCC(c3ccco3)N3CCCCC3)cc2)ccc1F (centres unmarked)
-41.2
O=C(c1ccccc1F)N(Cc1cccs1)C1CCS(=O)(=O)C1 (centres unmarked)
21.9
O=C(NCC(c1ccco1)N1CCCC1)c1ccc(S(=O)(=O)Nc2ccccc2Cl)cc1 (centres unmarked)
-11.6
Cc1ccccc1NS(=O)(=O)c1ccc(C(=O)NCC(c2ccco2)N2CCCCC2)cc1 (centres unmarked)
5.89

The molecule identified as `Cc1ccc(NS(=O)(=O)c2cccc(C(=O)N3CCN(C(=O)c4ccco4)CC3)c2)cc1` registered its hERG current change (%, negative = inhibition) at 10uM at -36.8

Noted for O=C(NCC(c1ccco1)N1CCCCC1)c1ccc(NS(=O)(=O)c2ccc(F)cc2)cc1 (centres unmarked) : its hERG current change (%, negative = inhibition) at 10uM reads -13

The measured hERG current change (%, negative = inhibition) at 10uM associated with COc1ccccc1C(CNC(=O)c1ccc(NS(=O)(=O)c2ccc(F)c(C)c2)cc1)N(C)C (centres unmarked) reads -24.4

Entry Cc1cccc(NS(=O)(=O)c2ccc(C(=O)NCC(c3ccco3)N3CCCCC3)cc2)c1C (centres unmarked) ; hERG current change (%, negative = inhibition) at 10uM = -55.6
